Test Details: Kinetic solubility in PBS (HPLC solubility assay)
Reported Conditions: PBS, aqueous buffer, kinetic from dmso stock, Solubility sample 2, Tables S1–S3, replicate 2
Recorded solubility for the following molecules
Measured Quantity: solubility (µM)

Molecule	Measured Quantity	Obs Value
O=C(O)CSc1nc2c([nH]c3ccccc32)c(=O)n1-c1ccccc1 [Compound 6, reference compound]	solubility	238
CCOC(=O)[C@H](CCC(=O)NCCCCCCNC(=O)Cc1ccc(C(C(=O)NC2CCCC2)N(C(=O)c2cc(-c3ccccc3)n(-c3ccccc3)n2)c2ccc3c(c2)CCC3)cc1)NC(=O)[C@@H](NC(=O)CNC(=O)/C=C/c1ccc(O)c(OC)c1)C(C)C (stereo partly shown)	solubility	1.17
CCOC(=O)[C@@H](CCC(=O)N1CCC(CN2CCN(C(=O)Cc3ccc(C(C(=O)NC4CCCC4)N(C(=O)c4cc(-c5ccccc5)n(-c5ccccc5)n4)c4ccc5c(c4)CCC5)cc3)CC2)CC1)NC(=O)[C@@H](NC(=O)CNC(=O)/C=C/c1ccc(O)c(OC)c1)C(C)C (stereo partly shown)	solubility	0.32
COc1cc(/C=C/C(=O)NCC(=O)N[C@H](C(=O)N[C@H](CCC(=O)OC2CCCC2)C(=O)OC2CCCC2)C(C)C)ccc1OC(=O)CCCCCNC(=O)CSc1nc2c([nH]c3ccccc32)c(=O)n1-c1ccccc1 [Compound 2, reference compound]	solubility	0.44

====

Recorded TLR4 activation at 100 μM, fold increase for the following compounds
Assayed System: TLR4 (Homo sapiens, UniProt O00206+Q9Y6Y9)
Sequence (O00206 24-839): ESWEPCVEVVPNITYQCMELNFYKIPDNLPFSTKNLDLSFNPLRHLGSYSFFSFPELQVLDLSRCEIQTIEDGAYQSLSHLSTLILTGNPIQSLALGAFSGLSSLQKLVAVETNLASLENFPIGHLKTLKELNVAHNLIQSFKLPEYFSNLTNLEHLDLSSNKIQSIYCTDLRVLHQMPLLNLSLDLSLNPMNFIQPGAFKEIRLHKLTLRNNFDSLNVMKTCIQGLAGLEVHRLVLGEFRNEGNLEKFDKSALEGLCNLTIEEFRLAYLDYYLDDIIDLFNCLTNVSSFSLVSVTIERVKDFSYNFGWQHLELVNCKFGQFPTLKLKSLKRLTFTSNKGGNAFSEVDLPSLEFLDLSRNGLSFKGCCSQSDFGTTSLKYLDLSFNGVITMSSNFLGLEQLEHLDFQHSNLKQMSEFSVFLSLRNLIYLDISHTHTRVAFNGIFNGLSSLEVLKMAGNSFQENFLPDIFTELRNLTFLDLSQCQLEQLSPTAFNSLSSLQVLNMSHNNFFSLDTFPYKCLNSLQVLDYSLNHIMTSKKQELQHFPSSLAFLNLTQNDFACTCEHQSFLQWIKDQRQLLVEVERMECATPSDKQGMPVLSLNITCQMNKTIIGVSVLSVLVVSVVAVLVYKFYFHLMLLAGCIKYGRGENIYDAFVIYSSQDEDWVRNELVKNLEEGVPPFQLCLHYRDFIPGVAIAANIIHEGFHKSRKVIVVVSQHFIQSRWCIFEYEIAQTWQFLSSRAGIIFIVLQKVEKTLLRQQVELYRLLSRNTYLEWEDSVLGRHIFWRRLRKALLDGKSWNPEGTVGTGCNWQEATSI
Sequence (Q9Y6Y9 17-160 limits assumed): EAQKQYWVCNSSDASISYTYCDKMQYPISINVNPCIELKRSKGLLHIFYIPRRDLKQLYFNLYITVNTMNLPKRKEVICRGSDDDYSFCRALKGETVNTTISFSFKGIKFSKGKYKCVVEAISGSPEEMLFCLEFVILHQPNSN
Test Details: TLR4 NF-κB SEAP reporter assay in HEK-Blue hTLR4 cells
Reported Conditions: 100 μM, 18 h, NF-κB transcriptional activity (SEAP) relative to 0.1% DMSO
Measured Quantity: TLR4 activation at 100 μM, fold increase

Compound	Measured Quantity	Obs Value
CCOC(=O)[C@H](CCC(=O)NCCOCCOCCNC(=O)CSc1nc2c([nH]c3ccccc32)c(=O)n1-c1ccccc1)NC(=O)[C@H](NC(=O)CNC(=O)/C=C/c1ccc(O)c(OC)c1)C(C)C	TLR4 activation at 100 μM, fold increase	1.43 fold increase
O=C(O)CSc1nc2c([nH]c3ccccc32)c(=O)n1-c1ccccc1 [Compound 6, reference compound]	TLR4 activation at 100 μM, fold increase	3.10 fold increase
CCOC(=O)[C@@H](CCC(=O)NCCCOCCOCCOCCCNC(=O)CSc1nc2c([nH]c3ccccc32)c(=O)n1-c1ccccc1)NC(=O)[C@@H](NC(=O)CNC(=O)/C=C/c1ccc(O)c(OC)c1)C(C)C	TLR4 activation at 100 μM, fold increase	1.36 fold increase

====

Assayed System: NOD2 (Homo sapiens, UniProt Q9HC29)
Sequence (Q9HC29 whole entry): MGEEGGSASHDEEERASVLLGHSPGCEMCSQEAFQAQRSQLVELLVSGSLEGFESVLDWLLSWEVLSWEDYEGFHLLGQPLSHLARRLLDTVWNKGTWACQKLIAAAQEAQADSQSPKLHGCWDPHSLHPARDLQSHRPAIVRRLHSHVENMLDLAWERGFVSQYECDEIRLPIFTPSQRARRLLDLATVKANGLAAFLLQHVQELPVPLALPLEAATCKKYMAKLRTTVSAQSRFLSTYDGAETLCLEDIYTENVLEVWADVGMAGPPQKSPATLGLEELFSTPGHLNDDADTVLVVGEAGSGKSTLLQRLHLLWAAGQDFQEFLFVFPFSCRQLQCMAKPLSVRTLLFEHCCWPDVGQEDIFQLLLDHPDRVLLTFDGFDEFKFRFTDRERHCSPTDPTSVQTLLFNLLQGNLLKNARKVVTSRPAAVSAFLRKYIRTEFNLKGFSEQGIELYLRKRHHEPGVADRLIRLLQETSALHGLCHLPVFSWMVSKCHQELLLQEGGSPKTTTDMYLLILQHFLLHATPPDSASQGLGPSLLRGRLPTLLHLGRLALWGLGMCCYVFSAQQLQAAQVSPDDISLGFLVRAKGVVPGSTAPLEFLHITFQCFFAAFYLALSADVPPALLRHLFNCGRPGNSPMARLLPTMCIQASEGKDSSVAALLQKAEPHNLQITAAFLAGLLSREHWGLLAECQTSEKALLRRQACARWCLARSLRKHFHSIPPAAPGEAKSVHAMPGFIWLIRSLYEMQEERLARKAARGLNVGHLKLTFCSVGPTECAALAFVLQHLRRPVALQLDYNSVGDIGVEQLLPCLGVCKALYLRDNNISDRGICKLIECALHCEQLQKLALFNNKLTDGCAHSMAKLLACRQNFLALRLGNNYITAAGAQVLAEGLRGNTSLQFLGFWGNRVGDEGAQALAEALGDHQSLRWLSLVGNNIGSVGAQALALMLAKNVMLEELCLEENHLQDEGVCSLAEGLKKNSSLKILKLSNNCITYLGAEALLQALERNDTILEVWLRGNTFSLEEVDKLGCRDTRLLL
Test Details: NOD2 NF-κB SEAP reporter assay in HEK-Blue hNOD2 cells
Reported Conditions: 10 μM, 18 h, NF-κB transcriptional activity (SEAP) relative to 0.1% DMSO
Recorded NOD2 activation at 10 μM, fold increase for the following compounds
Measured Quantity: NOD2 activation at 10 μM, fold increase (fold increase)

Compound	Assayed System	Measured Quantity	Readout Units	Obs Value
CCOC(=O)[C@H](CCC(=O)NCCNC(=O)CSc1nc2c([nH]c3ccccc32)c(=O)n1-c1ccccc1)NC(=O)[C@H](NC(=O)CNC(=O)/C=C/c1ccc(O)c(OC)c1)C(C)C [Compound 27]	NOD2 (Homo sapiens, UniProt Q9HC29)	NOD2 activation at 10 μM, fold increase	fold increase	2.17
CCOC(=O)[C@H](CCC(=O)N1CCC(CN2CCN(C(=O)CSc3nc4c([nH]c5ccccc54)c(=O)n3-c3ccccc3)CC2)CC1)NC(=O)[C@H](NC(=O)CNC(=O)/C=C/c1ccc(O)c(OC)c1)C(C)C [Compound 31]	NOD2 (Homo sapiens, UniProt Q9HC29)	NOD2 activation at 10 μM, fold increase	fold increase	3.33
CCOC(=O)[C@@H](CCC(=O)N1CCC(CN2CCN(C(=O)Cc3ccc(C(C(=O)NC4CCCC4)N(C(=O)c4cc(-c5ccccc5)n(-c5ccccc5)n4)c4ccc5c(c4)CCC5)cc3)CC2)CC1)NC(=O)[C@@H](NC(=O)CNC(=O)/C=C/c1ccc(O)c(OC)c1)C(C)C (stereo partly shown) [Compound 21]	NOD2 (Homo sapiens, UniProt Q9HC29)	NOD2 activation at 10 μM, fold increase	fold increase	3.31
CCOC(=O)[C@@H](CCC(=O)NCCCOCCOCCOCCCNC(=O)CSc1nc2c([nH]c3ccccc32)c(=O)n1-c1ccccc1)NC(=O)[C@@H](NC(=O)CNC(=O)/C=C/c1ccc(O)c(OC)c1)C(C)C [Compound 30]	NOD2 (Homo sapiens, UniProt Q9HC29)	NOD2 activation at 10 μM, fold increase	fold increase	1.55

====

Recorded TLR4 activation at 10 μM, fold increase for the following compounds
Assayed System: TLR4 (Homo sapiens, UniProt O00206+Q9Y6Y9)
Test Details: TLR4 NF-κB SEAP reporter assay in HEK-Blue hTLR4 cells
Reported Conditions: 10 μM, 18 h, NF-κB transcriptional activity (SEAP) relative to 0.1% DMSO

Compound	Assayed System	TLR4 activation at 10 μM, fold increase [fold increase]
CCOC(=O)[C@@H](CCC(=O)NCCCOCCOCCOCCCNC(=O)CSc1nc2c([nH]c3ccccc32)c(=O)n1-c1ccccc1)NC(=O)[C@@H](NC(=O)CNC(=O)/C=C/c1ccc(O)c(OC)c1)C(C)C	TLR4 (Homo sapiens, UniProt O00206+Q9Y6Y9)	1.05
CCOC(=O)[C@H](CCC(=O)NCCCCCCNC(=O)Cc1ccc(C(C(=O)NC2CCCC2)N(C(=O)c2cc(-c3ccccc3)n(-c3ccccc3)n2)c2ccc3c(c2)CCC3)cc1)NC(=O)[C@@H](NC(=O)CNC(=O)/C=C/c1ccc(O)c(OC)c1)C(C)C (stereo partly drawn)	TLR4 (Homo sapiens, UniProt O00206+Q9Y6Y9)	1.46
CCOC(=O)[C@H](CCC(=O)NCCOCCOCCNC(=O)CSc1nc2c([nH]c3ccccc32)c(=O)n1-c1ccccc1)NC(=O)[C@H](NC(=O)CNC(=O)/C=C/c1ccc(O)c(OC)c1)C(C)C	TLR4 (Homo sapiens, UniProt O00206+Q9Y6Y9)	1.00
CCOC(=O)[C@@H](CCC(=O)NCCCOCCOCCOCCCNC(=O)Cc1ccc(C(C(=O)NC2CCCC2)N(C(=O)c2cc(-c3ccccc3)n(-c3ccccc3)n2)c2ccc3c(c2)CCC3)cc1)NC(=O)[C@@H](NC(=O)CNC(=O)/C=C/c1ccc(O)c(OC)c1)C(C)C (stereo partly drawn)	TLR4 (Homo sapiens, UniProt O00206+Q9Y6Y9)	2.68
O=C(O)CSc1nc2c([nH]c3ccccc32)c(=O)n1-c1ccccc1 [Compound 6, reference compound]	TLR4 (Homo sapiens, UniProt O00206+Q9Y6Y9)	1.22
CCOC(=O)[C@H](CCC(=O)NCCNC(=O)CSc1nc2c([nH]c3ccccc32)c(=O)n1-c1ccccc1)NC(=O)[C@H](NC(=O)CNC(=O)/C=C/c1ccc(O)c(OC)c1)C(C)C	TLR4 (Homo sapiens, UniProt O00206+Q9Y6Y9)	1.06
CCOC(=O)[C@H](CCC(=O)NCCNC(=O)Cc1ccc(C(C(=O)NC2CCCC2)N(C(=O)c2cc(-c3ccccc3)n(-c3ccccc3)n2)c2ccc3c(c2)CCC3)cc1)NC(=O)[C@@H](NC(=O)CNC(=O)/C=C/c1ccc(O)c(OC)c1)C(C)C (stereo partly drawn)	TLR4 (Homo sapiens, UniProt O00206+Q9Y6Y9)	5.10
CCOC(=O)[C@H](CCC(=O)N1CCC(CN2CCN(C(=O)CSc3nc4c([nH]c5ccccc54)c(=O)n3-c3ccccc3)CC2)CC1)NC(=O)[C@H](NC(=O)CNC(=O)/C=C/c1ccc(O)c(OC)c1)C(C)C	TLR4 (Homo sapiens, UniProt O00206+Q9Y6Y9)	1.05
CCOC(=O)[C@@H](CCC(=O)N1CCC(CN2CCN(C(=O)Cc3ccc(C(C(=O)NC4CCCC4)N(C(=O)c4cc(-c5ccccc5)n(-c5ccccc5)n4)c4ccc5c(c4)CCC5)cc3)CC2)CC1)NC(=O)[C@@H](NC(=O)CNC(=O)/C=C/c1ccc(O)c(OC)c1)C(C)C (stereo partly drawn)	TLR4 (Homo sapiens, UniProt O00206+Q9Y6Y9)	5.30

====

Assayed System: TLR4 (Homo sapiens, UniProt O00206+Q9Y6Y9)
Test Details: TLR4 NF-κB SEAP reporter assay in HEK-Blue hTLR4 cells
Reported Conditions: dose-response 0.5–10 μM (17–21) or 1–100 μM (27–31)
Measured Quantity: concentration at which compound activated TLR4 (µM)

Compound	Obs Value
CCOC(=O)[C@@H](CCC(=O)NCCCOCCOCCOCCCNC(=O)Cc1ccc(C(C(=O)NC2CCCC2)N(C(=O)c2cc(-c3ccccc3)n(-c3ccccc3)n2)c2ccc3c(c2)CCC3)cc1)NC(=O)[C@@H](NC(=O)CNC(=O)/C=C/c1ccc(O)c(OC)c1)C(C)C (stereo partly shown)	5
CCOC(=O)[C@@H](CCC(=O)N1CCC(CN2CCN(C(=O)Cc3ccc(C(C(=O)NC4CCCC4)N(C(=O)c4cc(-c5ccccc5)n(-c5ccccc5)n4)c4ccc5c(c4)CCC5)cc3)CC2)CC1)NC(=O)[C@@H](NC(=O)CNC(=O)/C=C/c1ccc(O)c(OC)c1)C(C)C (stereo partly shown)	0.5
CCOC(=O)[C@H](CCC(=O)NCCOCCOCCNC(=O)Cc1ccc(C(C(=O)NC2CCCC2)N(C(=O)c2cc(-c3ccccc3)n(-c3ccccc3)n2)c2ccc3c(c2)CCC3)cc1)NC(=O)[C@H](NC(=O)CNC(=O)/C=C/c1ccc(O)c(OC)c1)C(C)C (stereo partly shown)	5
CCOC(=O)[C@H](CCC(=O)NCCNC(=O)Cc1ccc(C(C(=O)NC2CCCC2)N(C(=O)c2cc(-c3ccccc3)n(-c3ccccc3)n2)c2ccc3c(c2)CCC3)cc1)NC(=O)[C@@H](NC(=O)CNC(=O)/C=C/c1ccc(O)c(OC)c1)C(C)C (stereo partly shown)	1.0
